- assay-text: Chemical stability of the compound in phosphate buffer at pH 2.5 assessed as half life at 250 umol/mL by HPLC analysis
- Format: physicochemical

| structure | unit-of-measure | half-life at 250 umol/mL |
| --- | --- | --- |
| COc1ccc2cc([C@H](C)C(=O)OCC/C(SSCc3ccccc3)=C(\C)N(C=O)CC(=O)OC[C@H]3O[C@H](O)[C@H](O)[C@@H](O)[C@@H]3O)ccc2c1 | h | 20.4 |
| COc1ccc2cc([C@H](C)C(=O)OCC/C(SSC(C)C)=C(\C)N(C=O)CC(=O)OC[C@H]3O[C@H](O)[C@H](O)[C@@H](O)[C@@H]3O)ccc2c1 | h | 21.7 |
| CCSS/C(CCOC(=O)[C@@H](C)c1ccc2cc(OC)ccc2c1)=C(/C)N(C=O)CC(=O)OC[C@H]1O[C@H](O)[C@H](O)[C@@H](O)[C@@H]1O | h | 16 |
| COc1ccc2cc([C@H](C)C(=O)OCC/C(SSCc3ccccc3)=C(\C)N(C)C=O)ccc2c1 | h | 13.7 |
| COc1ccc2cc([C@H](C)C(=O)OC[C@H]3O[C@H](O)[C@H](O)[C@@H](O)[C@@H]3O)ccc2c1 | h | 53.3 |

----------
- assay-text: in vivo
- settings: Kunming, mouse, brain, iv, 10 mg/kg
value-type: Cmax

| structure | endpoint-value |
| --- | --- |
| COc1ccc2cc([C@H](C)C(=O)O)ccc2c1 | 17100 ng/g |

----------
- System: Brain
- assay-text: AUC (0 to t) in Kunming mouse brain at dose equivalent to 10 mg/kg, iv of naproxen administered as single dose
- Format: ADME, organism-based
- Design: dose 10 mg/kg, route intravenous
- settings: in vivo
Examples of compounds with documented AUCt follow.

| structure | AUCt / µg·min/g |
| --- | --- |
| CCSS/C(CCOC(=O)[C@@H](C)c1ccc2cc(OC)ccc2c1)=C(/C)N(C=O)CC(=O)OC[C@H]1O[C@H](O)[C@H](O)[C@@H](O)[C@@H]1O | 4716.88 |
| COc1ccc2cc([C@H](C)C(=O)OCC/C(SSC(C)C)=C(\C)N(C=O)CC(=O)OC[C@H]3O[C@H](O)[C@H](O)[C@@H](O)[C@@H]3O)ccc2c1 | 6140.77 |
| COc1ccc2cc([C@H](C)C(=O)OCC/C(SSCc3ccccc3)=C(\C)N(C)C=O)ccc2c1 | 3307.75 |
| COc1ccc2cc([C@H](C)C(=O)OC[C@H]3O[C@H](O)[C@H](O)[C@@H](O)[C@@H]3O)ccc2c1 | 3930.87 |
| COc1ccc2cc([C@H](C)C(=O)OCC/C(SSCc3ccccc3)=C(\C)N(C=O)CC(=O)OC[C@H]3O[C@H](O)[C@H](O)[C@@H](O)[C@@H]3O)ccc2c1 | 5669.45 |

----------
Examples of compounds with documented AUCt follow.
- Tested on: Plasma
- assay-text: AUC (0 to t) in Kunming mouse plasma at dose equivalent to 10 mg/kg, iv of naproxen administered as single dose
- Format: ADME, organism-based
- Design: dose 10 mg/kg, route intravenous
- settings: in vivo
value-type: AUCt (µg/min/mL)

| structure | study-target | endpoint-value |
| --- | --- | --- |
| COc1ccc2cc([C@H](C)C(=O)OCC/C(SSCc3ccccc3)=C(\C)N(C=O)CC(=O)OC[C@H]3O[C@H](O)[C@H](O)[C@@H](O)[C@@H]3O)ccc2c1 | Plasma | 13348.87 |
| COc1ccc2cc([C@H](C)C(=O)O)ccc2c1 | Plasma | 3812.35 |
| COc1ccc2cc([C@H](C)C(=O)OCC/C(SSCc3ccccc3)=C(\C)N(C)C=O)ccc2c1 | Plasma | 8834.7 |
| COc1ccc2cc([C@H](C)C(=O)OCC/C(SSC(C)C)=C(\C)N(C=O)CC(=O)OC[C@H]3O[C@H](O)[C@H](O)[C@@H](O)[C@@H]3O)ccc2c1 | Plasma | 16185.44 |
| COc1ccc2cc([C@H](C)C(=O)OC[C@H]3O[C@H](O)[C@H](O)[C@@H](O)[C@@H]3O)ccc2c1 | Plasma | 10353.27 |
| CCSS/C(CCOC(=O)[C@@H](C)c1ccc2cc(OC)ccc2c1)=C(/C)N(C=O)CC(=O)OC[C@H]1O[C@H](O)[C@H](O)[C@@H](O)[C@@H]1O | Plasma | 12914.16 |

Reference source for all entries: ChEMBL document CHEMBL1921703
